experiment: Antiproliferative activity against human hTERT-BJ cells incubated for 48 hrs by SRB assay; format: cell-based
In this section, each of the molecules is paired with its reported GI50 at 48 h.

| Molecule | Observed Measurement |
| --- | --- |
| CO[C@H]1O[C@@](C)([C@H]2CC(C)=C(C)C(=O)O2)[C@H]2CC[C@H]3[C@@H]4[C@@H](O)C=C5[C@@H](O)C=CC(=O)[C@]5(C)[C@H]4CC[C@]123 | > 10 µM |

Please examine the following record next.
Per the records, this molecule ( CCO[C@@H]1O[C@@](C)([C@H]2CC(C)=C(C)C(=O)O2)[C@H]2CC[C@H]3[C@@H]4[C@@H](O)C=C5[C@@H](O)C=CC(=O)[C@]5(C)[C@H]4CC[C@]123 ) has GI50 at 48 h equal to > 10 µM
